System: CRL-7250
test protocol: Cytotoxic Profiling of Annotated Libraries Using Quantitative High-Throughput Screening (AID 1296008); also: % is scaled to controls: 0 for no effect and ±100 for the full control effect; nearly all actives have a fitted effect of over 60% in size
condition: Five cell lines viability, CellTiter-Glo ATP luminescence, 48-72 h; hits give low values
Results filed as inconclusive are left out. Activity calls are given as the source filed them. Calls follow the shape of the dose curve; as a rule, active = well fitted inhibition curve with a large enough effect; inconclusive = small, poorly fitted or top-dose-only effect; inactive = flat fitted curve, though single readings scatter.
Reported max response values follow for various molecules

Would you please look over these solved cases?
molecule | max response
CC(=O)c1ccc2c(c1)N(CCCN1CCC(CCO)CC1)c1ccccc1S2 | -7.11% (inactive)
Cc1ccc(O)c2ncccc12 | -10.3% (inactive)

# max response measured on CRL-7250 for item `c1ccc(OCc2ccc(CCCN3CCOCC3)cc2)cc1` = -18% (inactive)

# max response measured on CRL-7250 for item `COc1cc(OC)cc(OC)c1` = -8.4% (inactive)

# max response measured on CRL-7250 for item `CC1(C)O[C@@H]2[C@@H](CO[C@@]3(COS(N)(=O)=O)OC(C)(C)O[C@@H]23)O1` = -9.34% (inactive)

# max response measured on CRL-7250 for item `OCc1ccccc1O` = 2.81% (inactive)

# max response measured on CRL-7250 for item `CCn1cc(C(=O)O)c(=O)c2cnc(N3CCCC3)nc21` = 4.85% (inactive)

----------
test protocol: qHTS of pediatric cancer cell lines to identify multiple opportunities for drug repurposing: Primary screen for Saos-2 cells (AID 1347097); also: % is scaled to controls: 0 for no effect and ±100 for the full control effect; nearly all actives have a fitted effect of over 40% in size
condition: Saos-2 viability, CellTiter-Glo ATP luminescence, 48 h; series mostly up to 46 µM
Records with an inconclusive call do not appear. The source made the active and inactive calls. Calls come from the whole dose curve; as a rule, active = well fitted cell-killing curve with a large enough effect; inconclusive = small, poorly fitted or top-dose-only effect; inactive = no such curve, though single readings can be large or run the other way.
Give your call using only these classes: 1.0 = active, 0.0 = inactive

Task item: Lab log entry: `Oc1cc(O)c2c(c1)O[C@H](c1ccc(O)c(O)c1)[C@H](O)C2` — outcome as called in the assay?
Reply: 0.0

Task item: Lab log entry: `Nc1nc2ncc(CNc3ccc(C(=O)N[C@@H](CCC(=O)O)C(=O)O)cc3)nc2c(=O)[nH]1` — outcome as called in the assay?
Reply: 0.0

----------
Tested on: CP185
test protocol: qHTS profiling for inhibitors of Plasmodium falciparum proliferation (AID 504749); also: nearly all actives have a fitted effect of over 60% in size
condition: P. falciparum in erythrocytes, SYBR Green DNA, 72 h; series mostly up to 28.7 µM
Results filed as inconclusive are left out. Active and inactive are the calls of the source. Calls follow the shape of the dose curve; as a rule, active = well fitted inhibition curve with a large enough effect; inconclusive = small, poorly fitted or top-dose-only effect; inactive = flat fitted curve, though single readings scatter. Numbered stars: 1 amine (or outer) side, 2 acyl side, 3 side chain; on linkers, the order of the positions; unused ones are H or OH. Bridge positions count the residues as written; N and C are the ends. Square brackets hold non-standard residues; d marks the D form. Peptide text beside a SMILES is read from it. I, II: the chains in the order shown. Actinocin(9to1) = Cc1c2oc3c(C)ccc(C(=O)[*:1])c3nc-2c(C(=O)[*:2])c(N)c1=O; NMeV = CN[C@H](C(=O)O)C(C)C; Sar = CNCC(=O)O
Give your call using only these classes: active, inactive

Answered cases to consult:
molecule | assigned class
NCCc1ccn[nH]1 | inactive
O=C(COc1ccc(Cl)cc1)N1CCN(Cc2ccc3c(c2)OCO3)CC1 | inactive
C[C@]12CCC(=O)C=C1CC[C@H]1[C@@H]3CC[C@](O)(C(=O)CO)[C@@]3(C)C[C@H](O)[C@@]12F | inactive
Cc1c2oc3c(C)ccc(C(=O)N[C@@H]4C(=O)N[C@H](C(C)C)C(=O)N5CCC[C@H]5C(=O)N(C)CC(=O)N(C)[C@@H](C(C)C)C(=O)O[C@@H]4C)c3nc-2c(C(=O)N[C@@H]2C(=O)N[C@H](C(C)C)C(=O)N3CCC[C@H]3C(=O)N(C)CC(=O)N(C)[C@@H](C(C)C)C(=O)O[C@@H]2C)c(N)c1=O (I: T[dV]P[Sar][NMeV] / II: T[dV]P[Sar][NMeV]; ester I:1-I:C, II:1-II:C; linker I:N-II:N via Actinocin(9to1)) | active
O=C1c2ccccc2C(=O)C1c1ccccc1 | inactive

Task item: Lab log entry: `Cc1cccn2c(=O)c(-c3nnn[nH]3)cnc12` — outcome as called in the assay?
Reply: inactive

Task item: Lab log entry: `O=C(Nc1ccc(Oc2ccc(Cl)cc2)c(Cl)c1)c1cc(I)cc(I)c1O` — outcome as called in the assay?
Reply: inactive

----------
Tested on: WaGa
test protocol: qHTS assay to identify novel small-molecules to repurpose for Merkel cell carcinoma treatment (AID 1296009); also: nearly all actives have a fitted effect of over 60% in size
condition: MCC and control cell lines, CellTiter-Glo viability, 72 h; series mostly up to 46 µM
Results filed as inconclusive are left out. Calls of active or inactive are those of the source. Calls come from the whole dose curve; as a rule, active = well fitted inhibition curve with a large enough effect; inconclusive = small, poorly fitted or top-dose-only effect; inactive = flat fitted curve, though single readings scatter.
Give your call using only these classes: y (active), n (inactive)

Answered cases to consult:
compound | assigned class
Nc1ccc(C(=O)O)cc1 | n
Cc1c(N(C)CS(=O)(=O)O)c(=O)n(-c2ccccc2)n1C | n
Oc1c(I)cc(Cl)c2cccnc12 | y
C[C@H](O)C(=O)Nc1c(I)c(C(=O)NC(CO)CO)c(I)c(C(=O)NC(CO)CO)c1I | n
Cc1c(F)c(N2CCNC(C)C2)cc2c1c(=O)c(C(=O)O)cn2C1CC1 (stereo not given) | n
c1ccc(CNCCNCc2ccccc2)cc1 | n
Cc1cc2c(cc1CC(=O)c1sccc1S(=O)(=O)Nc1onc(C)c1Cl)OCO2 | n
CC(C)n1nc(-c2cc3cc(O)ccc3[nH]2)c2c(N)ncnc21 | y
CC(=O)OCC(=O)[C@@]1(OC(C)=O)[C@@H](C)C[C@H]2[C@@H]3C[C@H](F)C4=CC(=O)C=C[C@]4(C)[C@@]3(F)[C@@H](O)C[C@@]21C | n

Here is the next item to consider.
Task item: Lab log entry: `CC1(C)OC[C@@H](COC(=O)CCc2ccc(OC[C@@H](O)CNCCNC(=O)N3CCOCC3)cc2)O1` — outcome as called in the assay?
Reply: n

----------
Test system: ECU
test protocol: qHTS profiling for inhibitors of Plasmodium falciparum proliferation (AID 504749); also: nearly all actives have a fitted effect of over 60% in size
condition: P. falciparum in erythrocytes, SYBR Green DNA, 72 h; series mostly up to 28.7 µM
Results filed as inconclusive are left out. Active and inactive are the calls of the source. The call rests on the fitted dose curve; in most records, active means well fitted inhibition curve with a large enough effect; inconclusive means small, poorly fitted or top-dose-only effect; inactive means flat fitted curve, though single readings scatter. Numbered stars: 1 amine (or outer) side, 2 acyl side, 3 side chain; on linkers, the order of the positions; unused ones are H or OH. Bridge positions count the residues as written; N and C are the ends. Square brackets hold non-standard residues; d marks the D form. Peptide text beside a SMILES is read from it. I, II: the chains in the order shown. Actinocin(9to1) = Cc1c2oc3c(C)ccc(C(=O)[*:1])c3nc-2c(C(=O)[*:2])c(N)c1=O; NMeV = CN[C@H](C(=O)O)C(C)C; Sar = CNCC(=O)O
Give your call using only these classes: t (active), f (inactive)

Answered cases to consult:
molecule | assigned class
CCCCCCCCCCCCCCCCOP(=O)([O-])OCC[N+](C)(C)C | f
CC(C)(Oc1ccc(Cl)cc1)C(=O)O | f
Cc1c2oc3c(C)ccc(C(=O)N[C@@H]4C(=O)N[C@H](C(C)C)C(=O)N5CCC[C@H]5C(=O)N(C)CC(=O)N(C)[C@@H](C(C)C)C(=O)O[C@@H]4C)c3nc-2c(C(=O)N[C@@H]2C(=O)N[C@H](C(C)C)C(=O)N3CCC[C@H]3C(=O)N(C)CC(=O)N(C)[C@@H](C(C)C)C(=O)O[C@@H]2C)c(N)c1=O (I: T[dV]P[Sar][NMeV] / II: T[dV]P[Sar][NMeV]; ester I:1-I:C, II:1-II:C; linker I:N-II:N via Actinocin(9to1)) | t
C1CCc2nnnn2CC1 | f
C[C@@H]1CN(CCCn2c3ccccc3c3ccccc32)C[C@H](C)N1 | t

Here is the next item to consider.
Task item: Lab log entry: `O=C(O)CNC(=O)c1ccccc1` — outcome as called in the assay?
Reply: f

----------
System: DIV30
test protocol: qHTS profiling for inhibitors of Plasmodium falciparum proliferation (AID 504749); also: nearly all actives have a fitted effect of over 60% in size
condition: P. falciparum in erythrocytes, SYBR Green DNA, 72 h; series mostly up to 28.7 µM
Results filed as inconclusive are left out. The source made the active and inactive calls. The call rests on the fitted dose curve; in most records, active means well fitted inhibition curve with a large enough effect; inconclusive means small, poorly fitted or top-dose-only effect; inactive means flat fitted curve, though single readings scatter.
Give your call using only these classes: active, inactive

compound | measured target | assigned class
CN1CCC(=C2c3ccccc3Sc3ccccc32)CC1 | DIV30 | active
CC(Cc1cccc(C(F)(F)F)c1)NCCOC(=O)c1ccccc1 (configuration not stated) | DIV30 | inactive
CC(O)(P(=O)(O)O)P(=O)(O)O | DIV30 | inactive
O=C(COc1ccc(Cl)cc1)N1CCN(Cc2ccc3c(c2)OCO3)CC1 | DIV30 | inactive
CC(C)(C)CC(C)(C)c1ccc(O)c(Cc2ccc(Cl)cc2Cl)c1 | DIV30 | active
CN(C)/N=N/c1nc[nH]c1C(N)=O | DIV30 | inactive
N[C@H](CO)C(=O)O | DIV30 | inactive
CCCCCC=CCC=CCCCCCCCC(=O)OCC | DIV30 | inactive

Task item: Lab log entry: `C[C@@H]1CN(CCCn2c3ccccc3c3ccccc32)C[C@H](C)N1` — outcome as called in the assay?
Reply: active

Task item: Lab log entry: CCCCC(CC)CN=C(N)NC(N)=NCCCCCCN=C(N)NC(N)=NCC(CC)CCCC (configuration not stated) — outcome as called in the assay?
Reply: active

Task item: Lab log entry: `COc1cc(OC)cc(OC)c1` — outcome as called in the assay?
Reply: inactive

Task item: Lab log entry: `Nc1ccc(/C=C/c2ccc(N)cc2S(=O)(=O)O)c(S(=O)(=O)O)c1` — outcome as called in the assay?
Reply: inactive

Just for reference, PubChem BioAssay (NCATS) is where these values come from.
